Recorded IC50 values for a group of compounds are listed next.
system: HepG-2; test: MTT assay, HepG-2 hepatocellular carcinoma cells; format: cell-based; settings: Homo sapiens, HepG2, 48 h, mean ± SE, read-out: IC50 against HepG-2
Field: numeric (µM). Do not append units.

compound="CN(C)c1ccc(C2CC(c3ccc(N=NC4C(=O)N(c5ccccc5)N=C4N)cc3)=NN2c2ccccc2)cc1 (centres unmarked)" result_value=5.85

Here is the next item to consider.
[ask] Give IC50 for CC(=O)N1N=C(c2ccc(N=NC3C(=O)N(c4ccccc4)N=C3N)cc2)CC1c1ccc(N(C)C)cc1 (centres unmarked)
[reply] 25.6

----------
value-kind: melting point
Answer shape: numeric part, then the unit.

Use the examples below as a reference point.
compound="CN(C)c1ccc(C2C=C(c3ccc(/N=N/C4C(=O)N(c5ccccc5)N=C4N)cc3)OC(N)=C2C#N)cc1 (stereo not drawn)" result_value="139 °C"
compound="CN(C)c1ccc(-c2cc(-c3ccc(/N=N/C4C(=O)N(c5ccccc5)N=C4N)cc3)[nH]c(=O)c2C#N)cc1 (stereo not drawn)" result_value="92 °C"
compound="CC(=O)N1N=C(c2ccc(N=NC3C(=O)N(c4ccccc4)N=C3N)cc2)CC1c1ccc(N(C)C)cc1 (stereo not drawn)" result_value="74 °C"
compound="CN(C)c1ccc(-c2cc(-c3ccc(N=NC4C(=O)N(c5ccccc5)N=C4N)cc3)nc(=S)[nH]2)cc1 (stereo not drawn)" result_value="103 °C"

[ask] Item CN(C)c1ccc(C2CC(c3ccc(N=NC4C(=O)N(c5ccccc5)N=C4N)cc3)=NN2c2ccccc2)cc1 (stereo not drawn) : provide melting point
[reply] 96 °C

[ask] Consider the compound CN(C)c1ccc(-c2cc(-c3ccc(/N=N/C4C(=O)N(c5ccccc5)N=C4N)cc3)nc(N)c2C#N)cc1 (stereo not drawn) and give its recorded melting point.
[reply] 116 °C
